Hello, the source for this data is patent US20040097420A1, in case you need it.

Target sequence: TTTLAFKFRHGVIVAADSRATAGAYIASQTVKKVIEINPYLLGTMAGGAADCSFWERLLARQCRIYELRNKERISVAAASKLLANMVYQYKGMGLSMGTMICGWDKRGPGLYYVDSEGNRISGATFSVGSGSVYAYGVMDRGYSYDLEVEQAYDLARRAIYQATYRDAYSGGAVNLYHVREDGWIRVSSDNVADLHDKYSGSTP
pKi: −log10 of the molar value. Non-standard residues stand in square brackets, D forms with d. Residues, ends and D or L forms follow the SMILES beside them. *: point of attachment. Phe(4-NO2) = N[C@@H](Cc1ccc([N+](=O)[O-])cc1)C(=O)O; Cha = N[C@@H](CC1CCCCC1)C(=O)O; Cbz = O=C(OCc1ccccc1)*

compound	pKi
CC(C)C[C@H](NC(=O)OCc1ccccc1)C(=O)N[C@@H](CC(C)C)C(=O)N[C@H](C=O)CC1CCCCC1 [MG 129] (Cbz-Leu-Leu-[Cha]-aldehyde)	7.22
CC(C)C[C@H](NC(=O)OCc1ccccc1)C(=O)N[C@@H](CC(C)C)C(=O)N[C@H](C=O)Cc1ccc([N+](=O)[O-])cc1 [MG 135] (Cbz-Leu-Leu-[Phe(4-NO2)]-aldehyde)	6.54
CC(=O)N[C@@H](CC(C)C)C(=O)N[C@@H](CC(C)C)C(=O)N[C@H](C=O)CC(C)C [MG 154] (Ac-Leu-Leu-Leu-aldehyde)	7.12
